Hey, just so you know, these numbers are from PubChem BioAssay AID1727.

Target: Epidermal growth factor receptor (Homo sapiens) (UniProt P00533)
Sequence (P00533 whole entry L858R, looked up): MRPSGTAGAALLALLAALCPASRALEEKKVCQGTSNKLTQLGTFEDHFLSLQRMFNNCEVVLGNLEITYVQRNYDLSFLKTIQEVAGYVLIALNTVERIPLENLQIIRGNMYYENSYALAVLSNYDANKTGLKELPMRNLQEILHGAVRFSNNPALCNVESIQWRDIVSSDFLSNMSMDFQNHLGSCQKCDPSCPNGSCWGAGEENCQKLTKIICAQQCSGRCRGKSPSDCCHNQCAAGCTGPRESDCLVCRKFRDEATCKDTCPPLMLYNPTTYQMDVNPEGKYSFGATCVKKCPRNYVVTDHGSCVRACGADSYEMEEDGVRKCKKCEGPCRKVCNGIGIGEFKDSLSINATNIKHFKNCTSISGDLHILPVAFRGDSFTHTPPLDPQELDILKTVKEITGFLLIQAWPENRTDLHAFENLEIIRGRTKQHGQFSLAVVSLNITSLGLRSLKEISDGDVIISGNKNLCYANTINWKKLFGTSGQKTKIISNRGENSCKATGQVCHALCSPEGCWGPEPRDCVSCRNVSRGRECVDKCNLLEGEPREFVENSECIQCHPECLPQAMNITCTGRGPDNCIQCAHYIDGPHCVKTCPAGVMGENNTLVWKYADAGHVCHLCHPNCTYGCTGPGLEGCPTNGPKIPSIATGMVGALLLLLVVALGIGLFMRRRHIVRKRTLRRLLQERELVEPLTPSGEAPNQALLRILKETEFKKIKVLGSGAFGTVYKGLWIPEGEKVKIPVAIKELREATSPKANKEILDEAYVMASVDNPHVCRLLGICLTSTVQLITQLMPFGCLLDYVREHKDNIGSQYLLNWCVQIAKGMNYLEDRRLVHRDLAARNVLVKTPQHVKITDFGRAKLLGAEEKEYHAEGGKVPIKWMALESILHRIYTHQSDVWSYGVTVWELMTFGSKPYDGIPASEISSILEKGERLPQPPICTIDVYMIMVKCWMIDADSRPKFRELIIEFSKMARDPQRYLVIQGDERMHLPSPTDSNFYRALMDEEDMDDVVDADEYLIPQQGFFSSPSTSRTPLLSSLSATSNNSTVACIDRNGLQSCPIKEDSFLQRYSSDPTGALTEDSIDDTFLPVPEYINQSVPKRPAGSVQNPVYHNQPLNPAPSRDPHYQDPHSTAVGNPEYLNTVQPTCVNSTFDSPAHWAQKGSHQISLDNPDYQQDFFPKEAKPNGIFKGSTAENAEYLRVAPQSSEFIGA
Experiment: Assay for Inhibitors of the ERK Signaling Pathway using a Homogeneous Screening Assay: EGFR L858R Kinase Inhibition
Conditions: EGFR L858R kinase biochemical inhibition assay; series mostly up to 21.9 µM
Calls of active or inactive are those of the source. Calls follow the shape of the dose curve; as a rule, active = well fitted curve in the direction sought with a large enough effect; inactive = no such curve, though single readings can be large or run the other way.
Response enum: active, inactive

Field: example entries. Status: answers known.
CN(C)c1cccc2c1C(=O)c1ccccc1C2=O = inactive
Cn1nc(-c2ccc(Cl)cc2)nc2c(=O)n(C)c(=O)nc1-2 = inactive

Assay outcome for CCn1c(=O)c2[nH]c(-c3ccccc3)nc2n(CC)c1=O : what was it? inactive

Assay outcome for Cn1c(=O)[nH]c2nnc(-c3ccc(Cl)c(Cl)c3)nc2c1=O : what was it? inactive

Assay outcome for Fc1ccc(Nc2ncnc3sc4c(c23)CCC4)cc1F : what was it? active

Assay outcome for Cc1ccc(NNc2c(C)nc3ccccc3nc2=O)cc1 : what was it? active

Assay outcome for COc1ccc(C(=O)c2ccc(Cl)c([N+](=O)[O-])c2)cc1 : what was it? inactive

Assay outcome for O=C(Nc1nc(-c2ccccc2)cs1)c1ccc(N2CCOCC2)c([N+](=O)[O-])c1 : what was it? inactive

Assay outcome for Cc1nc2ccccc2nc(=O)c1NNc1ccccc1 : what was it? active
